System: SW-620 colon
TEST_SUMMARY: NCI tumour cell line growth inhibition, 48 h; in the data active means GI50 below about 0.43 µM; inactive means the rest
Possible outcomes: active, inactive

COMPOUND: CCCN1C(=O)/C(=C/c2ccc(SC(F)(F)F)cc2)SC1=Nc1ccc(OC)cc1
CAT: inactive

COMPOUND: COc1cc2ncn(-c3cc(OCc4ccccc4C(F)(F)F)c(C(N)=O)s3)c2cc1OC
CAT: active

COMPOUND: CCCCCCCCCCCC1N=C(N)N=C(N)N1c1cccc(Br)c1 (centres undefined)
CAT: inactive

COMPOUND: CN1CCCCC1CCN1c2ccccc2Sc2ccc(Br)cc21 (centres undefined)
CAT: inactive

----------
System: HT29 colon
TEST_SUMMARY: NCI tumour cell line growth inhibition, 48 h
// TGI lookup, one value per entry

COMPOUND: [Br][Pb]([c]1ccccc1)([c]1ccccc1)[c]1ccccc1
TARGET_SYSTEM: HT29 colon
TGI: 0.508 µM

COMPOUND: Cn1c(=O)c(-c2ccccc2Cl)cc2cnc(NC3CCOCC3)nc21
TARGET_SYSTEM: HT29 colon
TGI: > 25 µM

COMPOUND: Cc1ccc(C(=O)N/N=C(\N=Nc2ccc([N+](=O)[O-])cc2)c2ccc(N(CCC#N)CCC#N)cc2C)cc1
TARGET_SYSTEM: HT29 colon
TGI: > 100 µM

COMPOUND: S=C(NCc1ccccn1)N/N=C/c1ccccn1
TARGET_SYSTEM: HT29 colon
TGI: > 100 µM

COMPOUND: O=C1CCC(c2ccccc2)=NN1c1nc2ccccc2s1
TARGET_SYSTEM: HT29 colon
TGI: > 100 µM

COMPOUND: C[C@]12CC[C@H]3[C@@H](CC=C4C[C@@H](O)CC[C@@]43C)[C@@H]1C/C(=C\c1cccnc1)[C@@H]2O
TARGET_SYSTEM: HT29 colon
TGI: > 100 µM

COMPOUND: O=C1/C(=C/c2ccc(Cl)cc2)CCC1CNc1ccc(Cl)cc1 (stereo not given)
TARGET_SYSTEM: HT29 colon
TGI: 41.1 µM

COMPOUND: O=C1NC(N2CCCC(CO)C2)=N/C1=C\c1cccs1 (stereo not given)
TARGET_SYSTEM: HT29 colon
TGI: > 100 µM

COMPOUND: O=c1c(-c2nc3ccccc3c3ccccc3c2=O)nc2ccccc2c2ccccc12
TARGET_SYSTEM: HT29 colon
TGI: > 100 µM

COMPOUND: O=C(/C=C/c1ccccc1)c1ccc(Cl)cc1Cl
TARGET_SYSTEM: HT29 colon
TGI: 32.9 µM

----------
// TGI lookup, one value per entry
Tested on: KM12 colon
TEST_SUMMARY: NCI tumour cell line growth inhibition, 48 h

COMPOUND: FC(F)(F)c1ccccc1C1SCc2nc3ccccc3n21 (stereo unspecified)
TARGET_SYSTEM: KM12 colon
TGI: > 100 µM

COMPOUND: O=c1ccc(N=Nc2ccccc2)ccc1O
TARGET_SYSTEM: KM12 colon
TGI: 24.9 µM

COMPOUND: COc1cc(C2CC(c3ccccc3)=NN2C=O)ccc1Oc1ccnc2cc(Cl)ccc12 (stereo unspecified)
TARGET_SYSTEM: KM12 colon
TGI: > 100 µM

COMPOUND: C=C1C(=O)OC2CC(C)C(/C=C/C(C)=O)=CCC12 (stereo unspecified)
TARGET_SYSTEM: KM12 colon
TGI: > 100 µM

COMPOUND: Cc1cc(C)c2nc3c(c(C(O)C4CCCCN4)c2c1)CC/C3=C\c1ccc(Cl)cc1 (stereo unspecified)
TARGET_SYSTEM: KM12 colon
TGI: > 100 µM

COMPOUND: CC(C)=CCC[C@@H](C)C1=C(O)C(N[C@H](C)c2ccccc2)=C(C)C(=O)C1=O
TARGET_SYSTEM: KM12 colon
TGI: > 46 µM

----------
Test system: HS 578T breast
TEST_SUMMARY: NCI tumour cell line growth inhibition, 48 h; in the data active = GI50 below about 0.43 µM; inactive = the rest
Possible outcomes: YES = active, NO = inactive

CPD_SMILES: CCc1ccc2c(c1)C(=O)c1c-2n(CCCN)c(=O)c2cc(OC)c(OC)cc12
CAT: NO
//
CPD_SMILES: COC(=O)c1c(C)nc(C)c2c1C(=O)C(Br)=C(NCc1ccccc1)C2=O
CAT: NO
//
CPD_SMILES: CC[C@H](C)[C@H](NC(=O)[C@H]1CCCCN1C)C(=O)N(C)[C@H](CCc1nc(C(=O)N[C@@H](Cc2ccccc2)C[C@H](C)C(=O)O)cs1)C(C)C
CAT: YES
//
CPD_SMILES: CC(=O)ON(OCc1ccc2ccccc2c1)C(C)=O
CAT: NO
//
CPD_SMILES: S=c1ssnc1-c1cc2ccccc2o1
CAT: NO

----------
System: HCC-2998 colon
TEST_SUMMARY: NCI tumour cell line growth inhibition, 48 h

COMPOUND: CN(C)C(=O)C(F)(F)C(c1ccccc1Br)C1C(=O)N(C)C(=O)N(C)C1=O (stereo not given)
TARGET_SYSTEM: HCC-2998 colon
TGI: > 100 µM
--
COMPOUND: COC(=O)Cc1cc(=O)n2c3ccccc3n(C)c2c1C#N
TARGET_SYSTEM: HCC-2998 colon
TGI: > 100 µM
--
COMPOUND: Cc1cc(NCCCCCCCNc2cc(C)nc3cc(N)ccc23)c2ccc(N)cc2n1
TARGET_SYSTEM: HCC-2998 colon
TGI: > 100 µM
--
COMPOUND: Cc1ccc(C(=O)N/N=C(\N=Nc2ccc([N+](=O)[O-])cc2)c2ccc(N(CCC#N)CCC#N)cc2C)cc1
TARGET_SYSTEM: HCC-2998 colon
TGI: > 100 µM
--
COMPOUND: Cc1c2cc[n+](Cc3ccc(I)cc3)cc2c(C)c2c1[nH]c1ccccc12
TARGET_SYSTEM: HCC-2998 colon
TGI: 5.25 µM

----------
System: PC-3 prostate
TEST_SUMMARY: NCI tumour cell line growth inhibition, 48 h
// TGI lookup, one value per entry

MOLECULE: CSc1c(C(C)=O)c(O)n(-c2ccc(C)cc2)c(=O)c1C#N
TGI: > 100 µM
--
MOLECULE: CSc1cc(Cl)c(C)cc1S(=O)(=O)NC(=O)NNc1ccc(C)cc1
TGI: > 100 µM
--
MOLECULE: [O]=[Sn]([CH]1CCCCC1)[CH]1CCCCC1
TGI: 1.94 µM
--
MOLECULE: CCn1c(-c2nonc2N)nc2ccccc21
TGI: > 25 µM
--
MOLECULE: CCOC(=O)[C@@]12C[C@](/C=C/OC)(O[Si](C)(C)C)[C@@]13c1cc(OC)c(OC)cc1CCN3C(=O)C2=O
TGI: > 100 µM
--
MOLECULE: O=c1ccc(N=Nc2ccccc2)ccc1O
TGI: 28.6 µM
--
MOLECULE: N[C@@H]1CCCN(c2c(Br)cnc3[nH]cc(NC(=O)C4CC4)c23)C1
TGI: > 100 µM
--
MOLECULE: O=[N+]([O-])c1cccc(/C=N/Nc2ccc3ccccc3n2)c1O
TGI: 56.7 µM
--
MOLECULE: O=[N+]([O-])c1ccccc1N=Nc1c(O)[nH]c2c(Cl)cccc12
TGI: > 100 µM
--
MOLECULE: COC1OC2COC(=O)c3cc(O)c(O)c(O)c3-c3c(cc(O)c(O)c3O)C(=O)OC2C(O)C1O (stereo unspecified)
TGI: > 100 µM
--
MOLECULE: O=c1c(I)c[nH]cc1I
TGI: > 100 µM

----------
// TGI lookup, one value per entry
Tested on: SK-MEL-5 melanoma
TEST_SUMMARY: NCI tumour cell line growth inhibition, 48 h

COMPOUND: Cc1cc(N2CCC(N3CCCC3)CC2)nc(/N=C(\N)Nc2ccc(Cl)c(Cl)c2)n1
TGI: 3.02 µM
//
COMPOUND: CN1CCCCC1CCN1c2ccccc2Sc2ccc(Br)cc21 (stereo unspecified)
TGI: 3.47 µM
//
COMPOUND: O=c1c(I)c[nH]cc1I
TGI: > 100 µM
//
COMPOUND: S=c1ssnc1-c1cc2ccccc2o1
TGI: 26.7 µM
//
COMPOUND: NCCCN(CCCCN(CCCN)CCCc1ccccc1)CCCc1ccccc1
TGI: 3.36 µM
//
COMPOUND: Cn1cc(-c2cc(-c3cn(C)c4ccccc34)[nH]n2)c2ccccc21
TGI: > 100 µM

----------
// TGI lookup, one value per entry
Tested on: UACC-62 melanoma
TEST_SUMMARY: NCI tumour cell line growth inhibition, 48 h
ENDPOINT_LABEL: TGI

COMPOUND: c1ccc(C(Oc2noc3ccccc23)c2ccccc2)cc1
ENDPOINT_LABEL: TGI
OBS_VALUE: > 100 µM

COMPOUND: O=P(CN1CCOCC1)(c1ccccc1)c1ccccc1
ENDPOINT_LABEL: TGI
OBS_VALUE: > 100 µM

COMPOUND: CCOc1ccc(C2=NN(CC)C(=O)C(C3C(=O)N(c4ccccc4)N=C3C)C2)cc1 (stereo not given)
ENDPOINT_LABEL: TGI
OBS_VALUE: > 100 µM

COMPOUND: O=c1[nH]c2cc(Cl)ccc2nc1/C(=N\Nc1ccccc1)C(O)c1ccc2c(c1)OCO2 (stereo not given)
ENDPOINT_LABEL: TGI
OBS_VALUE: > 100 µM

COMPOUND: COc1cc2c(oc(=O)c3c4occc4cc(OC)c23)c2cccc(O)c12
ENDPOINT_LABEL: TGI
OBS_VALUE: > 100 µM
